Overview of recorded Toxic concentration for various molecules
tested on: aquatic organisms; assay: Species Sensitivity Distributions (SSD) curve fitting, toxic concentration HC5; set-up: unit not given here; conditions: HC5^i, protects 95% of aquatic organisms; Table 3
Reply with the value as a number alone.

Solved cases below.
    molecule   target_or_system  numeric_value
0  [As] [As]  aquatic organisms           14.9
1  [Zn] [Zn]  aquatic organisms          10.83
2  [Cr] [Cr]  aquatic organisms           2.42
3  [Cd] [Cd]  aquatic organisms            0.3
4  [Hg] [Hg]  aquatic organisms           0.53

GET /values?readout=Toxic concentration&system=aquatic organisms&item= [Ni] [Ni] 6.03

Param item: [Cu] [Cu] 0.89
